# System: CP260
# protocolNotes: qHTS profiling for inhibitors of Plasmodium falciparum proliferation (AID 504749); also: nearly all actives have a fitted effect of over 60% in size; also: potency is read from the fitted curve at half-maximal effect
# details: P. falciparum in erythrocytes, SYBR Green DNA, 72 h; series mostly up to 28.7 µM
Records with an inconclusive call do not appear. The source made the active and inactive calls. Calls follow the shape of the dose curve; as a rule, active = well fitted inhibition curve with a large enough effect; inconclusive = small, poorly fitted or top-dose-only effect; inactive = flat fitted curve, though single readings scatter.
reportedProperty: Potency

Here's what some known entries look like.
- compound: "CCCCCCCCCCCC(CC1OC(=O)C1CCCCCC)OC(=O)C(CC(C)C)NC=O (stereo not given)"
  Potency: "794 nM (active)"
- compound: "COc1cccc2c1C(=O)c1c(O)c3c(c(O)c1C2=O)C[C@@](O)(C(=O)CO)C[C@@H]3O[C@H]1C[C@H](N)[C@H](OC2CCCCO2)[C@H](C)O1 (stereo not given in full)"
  Potency: "2240 nM (active)"
- compound: "COc1ccc2c(c1OC)C(=O)OC2[C@H]1c2c(cc3c(c2OC)OCO3)CCN1C (stereo not given in full)"
  Potency: "inactive"
- compound: "CCC(C(=O)O)C1CCC(C)C(C(C)C(O)C(C)C(=O)C(CC)C2OC3(C=CC(O)[C@@]4(CC[C@](C)(C5CC[C@@](O)(CC)C(C)O5)O4)O3)C(C)CC2C)O1 (stereo not given in full)"
  Potency: "631 nM (active)"

Recorded Potency of Nc1nc2c(c(=O)[nH]1)N(C=O)[C@H](CNc1ccc(C(=O)N[C@@H](CCC(=O)O)C(=O)O)cc1)CN2 , please. inactive
